- Tested System: his-labeled human IL-13 (immunogen A) (human) (UniProt P35225)
- Protocol Details: FACS blocking, biotin-IL-13 on IL-13Ra1/IL-4Ra HEK293 cells; antibody at 33.33 nM
I'd appreciate it if you marked entries Fulfilled when mean fluorescence intensity is lower than 20 and Not fulfilled when it is not.

Please review the following examples before continuing.
>>> class("c28A2E11 (mouse-human chimeric IL-13 antibody) (antibody, V domains shown) VH: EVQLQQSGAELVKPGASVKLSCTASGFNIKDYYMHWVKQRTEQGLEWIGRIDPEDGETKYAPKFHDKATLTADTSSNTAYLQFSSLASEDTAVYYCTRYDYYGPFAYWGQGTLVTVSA VL: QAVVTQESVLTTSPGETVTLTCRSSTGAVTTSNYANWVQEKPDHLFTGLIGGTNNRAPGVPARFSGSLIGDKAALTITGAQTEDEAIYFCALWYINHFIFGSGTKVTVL")
"Not fulfilled"
>>> class("c70F10A10 (mouse-human chimeric IL-13 antibody) (antibody, V domains shown) VH: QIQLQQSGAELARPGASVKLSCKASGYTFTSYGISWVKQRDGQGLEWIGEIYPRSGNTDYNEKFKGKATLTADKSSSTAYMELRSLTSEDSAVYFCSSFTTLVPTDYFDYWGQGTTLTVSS VL: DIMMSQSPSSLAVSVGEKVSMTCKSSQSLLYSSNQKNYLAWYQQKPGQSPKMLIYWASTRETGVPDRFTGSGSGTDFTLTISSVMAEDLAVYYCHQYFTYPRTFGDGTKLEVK")
"Not fulfilled"
>>> class("29D9H8 (lead antibody, mouse hybridoma) (antibody, V domains shown, Mouse monoclonal antibody purified from hybridoma supernatant on Protein G) VH: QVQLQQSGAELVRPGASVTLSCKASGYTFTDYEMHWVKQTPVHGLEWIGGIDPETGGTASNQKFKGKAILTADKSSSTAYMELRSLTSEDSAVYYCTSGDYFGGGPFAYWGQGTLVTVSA VL: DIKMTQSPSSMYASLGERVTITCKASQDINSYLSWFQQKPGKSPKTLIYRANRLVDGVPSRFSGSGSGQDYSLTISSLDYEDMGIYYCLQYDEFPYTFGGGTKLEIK")
"Fulfilled"

Please let me know if 28A2E11 (lead antibody, mouse hybridoma) (antibody, V domains shown, Mouse monoclonal antibody purified from hybridoma supernatant on Protein G) VH: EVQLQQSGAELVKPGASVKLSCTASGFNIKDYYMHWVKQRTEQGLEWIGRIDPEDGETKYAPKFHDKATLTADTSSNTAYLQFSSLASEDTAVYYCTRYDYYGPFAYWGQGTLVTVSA VL: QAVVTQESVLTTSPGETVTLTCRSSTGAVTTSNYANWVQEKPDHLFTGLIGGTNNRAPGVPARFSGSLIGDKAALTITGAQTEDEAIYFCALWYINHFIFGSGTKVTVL shows mean fluorescence intensity below 20.
Not fulfilled
